Each entry below lists one item and its recorded koff value.
# System tested: T1, human CD3E&G complex (Sino Biological Inc., CT041-H0305H) (human, UniProt P07766 23-126; P09693 23-116)
# T1 construct: bought heterodimer; also called human CD3E&G antigen
# T1 sequence (P07766 23-126, chain 1 of 2): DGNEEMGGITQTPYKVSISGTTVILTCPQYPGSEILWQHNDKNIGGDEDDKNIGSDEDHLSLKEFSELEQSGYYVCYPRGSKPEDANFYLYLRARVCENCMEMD
# T1 sequence (P09693 23-116, chain 2 of 2): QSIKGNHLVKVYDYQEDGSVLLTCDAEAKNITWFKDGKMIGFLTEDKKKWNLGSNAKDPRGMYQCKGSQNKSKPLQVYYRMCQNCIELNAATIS
# Assay method text: BLI, antibody on sensor

[
  {
    "Binder": "hzsp34.113 (antibody, human IgG1, lambda, L234A L235A, V domains shown, CDR mutant of hzsp34.24; IgG1 L234A L235A, lambda) VH: EVQLVESGGGLVQPGGSLKLSCAASGFTFNTYAMNWVRQASGKGLEWVGRIRSKYNNYATYYADSVKDRFTISRDDSKSTLYLQMNSLKTEDTAVYYCARHGNFGQSYVSWFAYWGQGTTVTVSS VL: QAVVTQEPSLTVSPGGTVTLTCRSSTGAVTTSNYANWVQQKPGQAPRGLIGGTNKRAPGVPARFSGSLLGDKAALTLLGAQPEDEAEYYCALAASNLWVFGQGTKLTVLG",
    "U": "s⁻¹",
    "koff": 0.000811
  },
  {
    "Binder": "hzsp34.111 (antibody, human IgG1, lambda, L234A L235A, V domains shown, CDR mutant of hzsp34.24; IgG1 L234A L235A, lambda) VH: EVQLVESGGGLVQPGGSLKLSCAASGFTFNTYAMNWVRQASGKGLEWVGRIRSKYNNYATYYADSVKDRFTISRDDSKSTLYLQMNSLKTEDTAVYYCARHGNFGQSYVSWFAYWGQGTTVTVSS VL: QAVVTQEPSLTVSPGGTVTLTCRSSTGAVGGSNYANWVQQKPGQAPRGLIGGTNKRAPGVPARFSGSLLGDKAALTLLGAQPEDEAEYYCALWYSNLWVFGQGTKLTVLG",
    "U": "s⁻¹",
    "koff": 0.00191
  },
  {
    "Binder": "hzsp34.116 (antibody, human IgG1, lambda, L234A L235A, V domains shown, CDR mutant of hzsp34.24; IgG1 L234A L235A, lambda) VH: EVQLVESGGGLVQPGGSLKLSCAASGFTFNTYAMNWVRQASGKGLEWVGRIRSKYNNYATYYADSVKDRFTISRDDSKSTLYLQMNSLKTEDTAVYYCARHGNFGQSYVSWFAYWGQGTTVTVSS VL: QAVVTQEPSLTVSPGGTVTLTCRSSTGAVTTSNYANWVQQKPGQAPRGLIGGTNSRAPGVPARFSGSLLGDKAALTLLGAQPEDEAEYYCALWYSDLWVFGQGTKLTVLG",
    "U": "s⁻¹",
    "koff": 0.00286
  }
]
